Header: IC50 / Histone deacetylase 4 (Homo sapiens) / multiple publications
Please state the figure in µM; there is no need to write the unit.

Exam item: // fetch Histone deacetylase 4 (Homo sapiens) IC50 for COCCOCC(=O)SCCCCC[C@H](NC(=O)OCc1ccccc1)C(=O)Nc1cccc2cccnc12
Marked response: 0.018

Exam item: Now consider CCN1CCN(C(c2cccnc2)c2cc(Cl)c3cccnc3c2O)CC1 (centres undefined) and answer again.
Marked response: 13.8

Exam item: What do you get for O=C(/C=C/c1cccc(S(=O)(=O)N[C@H](C(=O)Nc2cccc3ccccc23)c2ccccc2)c1)NO ?
Marked response: 23

* * *

Ok so here's the combined literature set: IC50 for Histone deacetylase 4 (Homo sapiens).

Exam item: Data request, read-out IC50, for Nc1nc2ccc(-c3cn(Cc4ccc(-c5nnc(C(F)F)o5)cc4)nn3)cc2s1
Marked response: > 30 µM

Exam item: # repeat for CC(=O)SCCCCC[C@H](NC(=O)OCc1ccccc1)C(=O)Nc1cccc2cccnc12
Marked response: 0.018 µM

Exam item: Same again, this time with O=C(/C=C/c1cccc(S(=O)(=O)Nc2ccccc2)c1)NO
Marked response: 9.85 µM
